All values here come from ChEMBL document CHEMBL4177698.

- tested.target: UniProt:P18910
- Sequence (P18910 whole entry): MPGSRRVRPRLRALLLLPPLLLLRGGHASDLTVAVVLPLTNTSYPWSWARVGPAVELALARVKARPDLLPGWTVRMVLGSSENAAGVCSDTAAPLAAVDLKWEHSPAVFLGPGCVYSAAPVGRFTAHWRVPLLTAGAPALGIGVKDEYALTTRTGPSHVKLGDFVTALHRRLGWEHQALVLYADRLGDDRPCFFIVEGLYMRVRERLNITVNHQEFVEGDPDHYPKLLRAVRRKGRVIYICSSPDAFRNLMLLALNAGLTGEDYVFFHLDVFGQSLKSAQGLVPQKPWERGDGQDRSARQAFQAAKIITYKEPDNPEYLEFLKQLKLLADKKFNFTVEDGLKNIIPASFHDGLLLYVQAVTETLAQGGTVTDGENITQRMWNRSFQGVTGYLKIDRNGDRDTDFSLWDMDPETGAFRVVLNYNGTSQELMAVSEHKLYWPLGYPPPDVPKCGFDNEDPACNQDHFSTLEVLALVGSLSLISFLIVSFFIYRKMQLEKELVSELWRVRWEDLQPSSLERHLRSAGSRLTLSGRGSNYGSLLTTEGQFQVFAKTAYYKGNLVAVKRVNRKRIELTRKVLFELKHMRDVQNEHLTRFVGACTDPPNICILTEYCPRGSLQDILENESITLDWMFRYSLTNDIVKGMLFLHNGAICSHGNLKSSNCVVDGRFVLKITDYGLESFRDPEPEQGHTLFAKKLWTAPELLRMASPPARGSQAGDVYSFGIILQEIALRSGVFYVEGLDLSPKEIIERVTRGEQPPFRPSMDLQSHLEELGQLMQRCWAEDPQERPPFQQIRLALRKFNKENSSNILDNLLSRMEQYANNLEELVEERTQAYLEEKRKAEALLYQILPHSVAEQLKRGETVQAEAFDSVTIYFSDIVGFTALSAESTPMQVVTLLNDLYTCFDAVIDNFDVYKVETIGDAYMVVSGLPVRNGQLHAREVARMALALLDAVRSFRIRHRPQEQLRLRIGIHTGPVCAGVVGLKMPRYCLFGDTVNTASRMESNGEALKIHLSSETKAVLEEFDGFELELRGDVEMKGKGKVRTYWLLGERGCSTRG
- test.description: Agonist activity at rat NPR-A expressed in CHO cells assessed as increase in cGMP accumulation after 15 mins by fluorescent assay
Items are presented alongside their recorded EC50.
Supply the numeric figure in nM, leaving out any unit text.

Look over these answered cases.
compound	EC50 (nM)
C[C@H](CO)Nc1nc(N[C@H]2CC[C@@H](NC(=O)NC3CCCN(C)C3)CC2)c2cc(-c3cccc(F)c3)ccc2n1 (some centres undefined)	3200
CC(C)NC(=O)N[C@H]1CC[C@@H](Nc2nc(N[C@H](C)CO)nc3ccc(-c4cccc(F)c4)cc23)CC1	74

Looking up CC(C)[C@@H](CO)NC(=O)N[C@H]1CC[C@@H](Nc2nc(N[C@H](C)CO)nc3ccc(-c4cccc(F)c4)cc23)CC1 , I found its EC50 recorded as 330

Looking up C[C@H](CO)Nc1nc(N[C@H]2CC[C@@H](NC(=O)NC(C)(C)CO)CC2)c2cc(-c3cccc(F)c3)ccc2n1 , I found its EC50 recorded as 66

Looking up CC(C)NC(=O)N[C@H]1CC[C@@H](Nc2nc(NC(C)C)nc3ccc(-c4cccc(F)c4)cc23)CC1 , I found its EC50 recorded as 420
